Where do the numbers come from? From paper PMC8596843.

# System: human red blood cells
# Assay method text: Haemolysis assay
# Assay type: cell-based
# Applied conditions: concentration inducing 50 % haemolysis
Measured attribute: Haemolysis HC50

{"columns": ["Compound", "Measured attribute", "Test result"],
 "data": [
  ["C1=CCC/C=C\\CC1.[I][Pt][I] [Pt2, Pt(COD)I2]", "Haemolysis HC50", ">100 µM"],
  ["CC(C)C([O][Pt][Cl])/C1=C/CC/C=C\\CC1 (stereo not shown) [Pt8]", "Haemolysis HC50", ">100 µM"],
  ["C1=CCCC=CCC1.[CH3][Pt][CH3] [Pt3]", "Haemolysis HC50", ">100 µM"],
  ["C1=CCCC=CCC1.[CH3][Pt][C](F)(C(F)(F)F)C(F)(F)F [Pt6]", "Haemolysis HC50", ">100 µM"],
  ["CCC1=CCCC=CCC1.[CH3][Pt][C](F)(F)C(F)(F)C(F)(F)C(F)(F)C(F)(F)C(F)(F)C(F)(F)C(F)(F)F [Pt9]", "Haemolysis HC50", ">100 µM"],
  ["C1=CCCC=CCC1.[CH3][Pt][Cl] [Pt4]", "Haemolysis HC50", "52.11 µM"],
  ["C1=C\\CC/C=C\\CC/1.[Cl][Pd][Cl] [Pd1]", "Haemolysis HC50", "10.14 µM"],
  ["C1=CCCC=CCC1.COc1cc[c]([Pt][CH3])cc1 [Pt5]", "Haemolysis HC50", ">100 µM"],
  ["CCC1=CCCC=CCC1.[CH3][Pt][Cl] [Pt7]", "Haemolysis HC50", "52.12 µM"],
  ["C1=C\\CC/C=C\\CC/1.[Cl-].[Cl-].[Pt+2] [Pt1, Pt(COD)Cl2]", "Haemolysis HC50", ">100 µM"]
]}

---

# Tested on: Candida albicans ATCC 90028
# Assay method text: Antifungal MIC (CO-ADD screening)
# Format: cell-based
Reported values of MIC Ca for individual entries

{"columns": ["Compound", "Measurement unit", "Value modifier", "MIC Ca"],
 "data": [
  ["C1=CCCC=CCC1.[CH3][Pt][C](F)(C(F)(F)F)C(F)(F)F [Pt6]", "µM", "=", 20],
  ["CC(C)C([O][Pt][Cl])/C1=C/CC/C=C\\CC1 (centres unmarked) [Pt8]", "µM", "=", 10],
  ["CCC1=CCCC=CCC1.[CH3][Pt][Cl] [Pt7]", "µM", "=", 10],
  ["CCC1=CCCC=CCC1.[CH3][Pt][C](F)(F)C(F)(F)C(F)(F)C(F)(F)C(F)(F)C(F)(F)C(F)(F)C(F)(F)F [Pt9]", "µM", ">", 20],
  ["C1=CCCC=CCC1.COc1cc[c]([Pt][CH3])cc1 [Pt5]", "µM", "=", 10],
  ["C1=CCC/C=C\\CC1.[I][Pt][I] [Pt2, Pt(COD)I2]", "µM", "=", 10]
]}

---

# Test system: Enterococcus faecalis Clinical Isolate, VRE (VanB)
# Assay method text: Antibacterial MIC assay, Gram-positive panel
# Type: cell-based
# Applied conditions: Table S1 panel; n=4
Reported values of MIC for individual entries
Measured attribute: MIC

{"columns": ["Compound", "Test result"],
 "data": [
  ["C1=CCCC=CCC1.[CH3][Pt][CH3] [Pt3]", "200 µM"],
  ["C1=C\\CC/C=C\\CC/1.[Cl][Pd][Cl] [Pd1]", "> 200 µM"],
  ["C1=CCCC=CCC1.COc1cc[c]([Pt][CH3])cc1 [Pt5]", "> 200 µM"],
  ["CCC1=CCCC=CCC1.[CH3][Pt][Cl] [Pt7]", "> 200 µM"],
  ["C1=CCCC=CCC1.[CH3][Pt][Cl] [Pt4]", "> 200 µM"],
  ["C1=CCCC=CCC1.[CH3][Pt][C](F)(C(F)(F)F)C(F)(F)F [Pt6]", "> 200 µM"]
]}
